meta.source: patent US12319672B2

Entries with reported IC50 on UniProt P17931
Sequence (P17931 whole entry): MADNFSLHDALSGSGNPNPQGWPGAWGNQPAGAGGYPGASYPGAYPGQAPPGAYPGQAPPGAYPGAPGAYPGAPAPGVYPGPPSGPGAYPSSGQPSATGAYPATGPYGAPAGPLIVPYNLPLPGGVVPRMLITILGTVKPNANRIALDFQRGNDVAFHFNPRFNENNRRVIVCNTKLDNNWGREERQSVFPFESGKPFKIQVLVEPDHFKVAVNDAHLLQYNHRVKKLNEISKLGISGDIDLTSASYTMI
Parameter: IC50 (nM)

[a] CC(C)(C)c1cc(C[C@H]2O[C@H](CO)[C@H](O)[C@H](n3cc(-c4cc(F)c(F)c(F)c4)nn3)[C@H]2OCC(=O)N2CCC(O)CC2)no1 [Example 2.41]
[b] CO[C@@H]1[C@@H](n2cc(-c3cc(F)c(F)c(F)c3)nn2)[C@@H](O)[C@@H](CO)O[C@@H]1Cc1cc(C2(C)CCCC2)no1 [Ex 1.286]
[c] COc1cc(OC)c(-c2cn([C@H]3[C@@H](O)[C@@H](CO)O[C@H](CC4CC(C5CCN(C(=O)OC(C)(C)C)CC5)=NO4)[C@@H]3O)nn2)cc1F (some centres unmarked) [Ex 1.111]
[d] CO[C@@H]1[C@@H](n2cc(-c3ccc(C)c(F)c3F)nn2)[C@@H](O)[C@@H](CO)O[C@@H]1Cc1cc(C(C)(O)c2ccccc2)on1 (some centres unmarked) [Ex 1.318]
[e] CO[C@@H]1[C@@H](n2cc(-c3cc(F)c(F)c(F)c3)nn2)[C@@H](O)[C@@H](CO)O[C@@H]1CC1CC(C2CCNCC2)=NO1 (mixture of isomers) [Example 3.04]
Arrange the 5 entries by IC50 so the values rise. Write out the labels following the order that was asked for. a, d, b, e, c
(a: 100 nM, d: 160 nM, b: 230 nM, e: 550 nM, c: 1660 nM)
